target: T1, human collagen type I (acid soluble, extracted from placenta, Sigma C7774) (human, UniProt P02452 162-1218; P08123 80-1119); experiment: dried collagen assay
T1 construct: gelled and dried as a fibril film in the assay; also called dried human collagen; h-Collagen
T1 sequence (P02452 162-1218 limits assumed, chain 1 of 2): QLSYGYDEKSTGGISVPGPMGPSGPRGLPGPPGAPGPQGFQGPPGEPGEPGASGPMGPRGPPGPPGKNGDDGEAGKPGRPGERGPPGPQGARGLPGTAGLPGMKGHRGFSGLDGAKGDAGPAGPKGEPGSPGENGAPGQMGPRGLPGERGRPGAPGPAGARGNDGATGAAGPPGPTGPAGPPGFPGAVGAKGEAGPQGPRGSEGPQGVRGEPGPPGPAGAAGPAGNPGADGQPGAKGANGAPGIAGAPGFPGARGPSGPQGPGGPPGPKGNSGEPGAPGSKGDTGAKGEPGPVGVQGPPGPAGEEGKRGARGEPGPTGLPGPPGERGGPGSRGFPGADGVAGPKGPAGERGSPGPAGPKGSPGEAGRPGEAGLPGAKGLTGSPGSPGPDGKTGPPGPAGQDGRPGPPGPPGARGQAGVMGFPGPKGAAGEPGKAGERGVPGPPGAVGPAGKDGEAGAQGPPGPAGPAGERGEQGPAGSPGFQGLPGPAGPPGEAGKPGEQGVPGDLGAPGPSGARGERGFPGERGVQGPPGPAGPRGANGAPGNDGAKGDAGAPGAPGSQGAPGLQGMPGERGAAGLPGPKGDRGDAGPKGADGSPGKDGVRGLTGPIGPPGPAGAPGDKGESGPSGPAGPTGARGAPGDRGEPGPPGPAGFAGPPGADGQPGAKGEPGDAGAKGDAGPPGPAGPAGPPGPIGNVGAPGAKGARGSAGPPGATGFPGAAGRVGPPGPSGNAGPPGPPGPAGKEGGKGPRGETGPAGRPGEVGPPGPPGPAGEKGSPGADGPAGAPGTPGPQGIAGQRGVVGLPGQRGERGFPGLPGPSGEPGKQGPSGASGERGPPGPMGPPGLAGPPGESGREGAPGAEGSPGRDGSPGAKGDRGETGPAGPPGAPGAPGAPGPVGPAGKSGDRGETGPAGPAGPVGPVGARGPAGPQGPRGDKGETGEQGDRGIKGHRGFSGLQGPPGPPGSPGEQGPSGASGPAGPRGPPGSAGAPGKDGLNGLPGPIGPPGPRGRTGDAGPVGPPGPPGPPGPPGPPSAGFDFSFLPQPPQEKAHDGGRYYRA
T1 sequence (P08123 80-1119 limits assumed, chain 2 of 2): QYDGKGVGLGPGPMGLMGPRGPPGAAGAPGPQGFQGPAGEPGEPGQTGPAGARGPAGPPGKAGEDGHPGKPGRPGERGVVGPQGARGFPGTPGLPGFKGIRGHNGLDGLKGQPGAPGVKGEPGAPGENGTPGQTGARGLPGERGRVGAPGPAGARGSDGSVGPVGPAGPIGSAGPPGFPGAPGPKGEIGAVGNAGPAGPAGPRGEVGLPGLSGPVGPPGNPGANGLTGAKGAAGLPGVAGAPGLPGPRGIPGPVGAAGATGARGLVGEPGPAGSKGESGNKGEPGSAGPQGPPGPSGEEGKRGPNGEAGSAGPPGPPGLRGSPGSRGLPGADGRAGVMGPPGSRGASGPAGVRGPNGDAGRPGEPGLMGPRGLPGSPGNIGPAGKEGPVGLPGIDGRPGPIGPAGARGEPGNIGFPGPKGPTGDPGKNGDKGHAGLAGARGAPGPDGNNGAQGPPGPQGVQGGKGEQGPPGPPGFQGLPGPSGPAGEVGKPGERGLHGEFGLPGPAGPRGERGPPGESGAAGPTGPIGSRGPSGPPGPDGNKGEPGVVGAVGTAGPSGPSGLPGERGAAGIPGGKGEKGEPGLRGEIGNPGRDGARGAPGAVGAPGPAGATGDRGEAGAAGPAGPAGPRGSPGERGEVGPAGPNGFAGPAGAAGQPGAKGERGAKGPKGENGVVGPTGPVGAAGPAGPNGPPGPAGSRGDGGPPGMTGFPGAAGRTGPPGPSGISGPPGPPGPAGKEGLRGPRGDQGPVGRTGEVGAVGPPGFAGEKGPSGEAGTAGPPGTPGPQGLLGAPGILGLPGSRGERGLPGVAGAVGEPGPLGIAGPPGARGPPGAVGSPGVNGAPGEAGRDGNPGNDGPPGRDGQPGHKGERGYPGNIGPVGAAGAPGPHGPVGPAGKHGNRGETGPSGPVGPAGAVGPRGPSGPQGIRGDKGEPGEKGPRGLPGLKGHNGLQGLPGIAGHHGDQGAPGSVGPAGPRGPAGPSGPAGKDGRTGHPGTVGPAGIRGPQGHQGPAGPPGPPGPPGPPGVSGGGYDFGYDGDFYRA
Bridge positions count the residues as written; N and C are the ends. Ends that are not written are not given here.
endpoint.name: % bound (%)

binder | unit.abbreviation | % bound
PLVCHPPYSGSCSLH (disulfide 4-12 (inferred)) [SEQ ID NO: 11] | % | 9

[1] SWICTGDNIDWNCRFA (disulfide 4-13 (inferred)) [SEQ ID NO: 28]
[2] AWTCVGGEKTWGCVWN (disulfide 4-13 (inferred)) [SEQ ID NO: 33]
[3] PWQCYSDKTSWVCNLY (disulfide 4-13 (inferred)) [SEQ ID NO: 43]
[4] PWYCSGDHLDWKCIYQ (disulfide 4-13 (inferred)) [SEQ ID NO: 20]
[5] FWRCALLDGHWQCTDH (disulfide 4-13 (inferred)) [SEQ ID NO: 70]
Hey, quick one: sort these by % bound, low to high? Put the labels in the requested order and write them down.
5, 2, 1, 3, 4
(5: 3%, 2: 12%, 1: 20%, 3: 30%, 4: 64%)

[1] KWFCELMHDQWQCGSK (disulfide 4-13 (inferred)) [SEQ ID NO: 51]
[2] TWMCVDPPLWRCWVQ (disulfide 4-12 (inferred)) [SEQ ID NO: 4]
I need your help: which of the pair 1 , 2 has higher % bound? Provide the label of your selected option as the answer.
2
